EXPERIMENT_NOTES: Viability qHTS for spleen associated tyrosine kinase inhibitor (SYKi) naive MV4-11 cells (AID 1963823); note: nearly all actives have a fitted effect of over 40% in size
EXPERIMENTAL_PARAMETERS: MV4-11 AML viability, CellTiter-Glo luminescence, 72 h; series mostly up to 45 µM
Inconclusive results are not listed. The source made the active and inactive calls. Calls come from the whole dose curve; as a rule, active = well fitted cell-killing curve with a large enough effect; inconclusive = small, poorly fitted or top-dose-only effect, or effect the other way; inactive = no such curve, though single readings can be large or run the other way.
Log the outcome using a class from active, inactive

N#Cc1ccc(-c2ccc(S(=O)(=O)Nc3cccc(N)n3)cc2)cc1 :: active
COc1cc(-c2cn(C)c(=O)c3cnccc23)cc(OC)c1CN(C)C :: inactive
Cc1cc(C)cc(OCC2CNC(=O)O2)c1 (stereo unspecified) :: inactive

Ask: Dear all, I need the recorded test outcome for COCC(c1ccc(C(F)(F)F)cc1)N1CCN(C2(C)CCN(C(=O)c3c(C)ncnc3C)CC2)CC1C (stereo unspecified) , thank you.
Result: inactive

Ask: Dear all, I need the recorded test outcome for CNc1nc(Cc2ccccc2)nc2c1CCNC[C@@H]2C , thank you.
Result: inactive

Ask: Dear all, I need the recorded test outcome for Cc1cc(-c2ccc(/C=C3\SC(=Nc4ccc(Cl)c(C(=O)O)c4)NC3=O)o2)c([N+](=O)[O-])cc1C , thank you.
Result: inactive

----------
EXPERIMENT_NOTES: Viability qHTS for spleen associated tyrosine kinase inhibitor (SYKi) naive MV4-11 cells (AID 1963823); note: nearly all actives have a fitted effect of over 40% in size
EXPERIMENTAL_PARAMETERS: MV4-11 AML viability, CellTiter-Glo luminescence, 72 h; series mostly up to 45 µM
Records with an inconclusive call do not appear. Calls of active or inactive are those of the source. Calls come from the whole dose curve; as a rule, active = well fitted cell-killing curve with a large enough effect; inconclusive = small, poorly fitted or top-dose-only effect, or effect the other way; inactive = no such curve, though single readings can be large or run the other way.
Log the outcome using a class from active, inactive

O=C(/C=C/c1ccc(O)cc1)O[C@H]1[C@H](OC2CCCCC2O)O[C@H](CO)[C@@H](O)[C@@H]1O (some centres not stated) :: inactive

Now turn to the next compound.
Ask: Dear all, I need the recorded test outcome for Cc1nn(Cc2ccccc2Cl)c(C)c1CN(C)CC(O)COc1ccc(Cl)cc1 (configuration not stated) , thank you.
Result: active

----------
EXPERIMENT_NOTES: Quantitative highthroughput screen to assess conditional lethalithy of SEM cells grown in RPMI1640 with dialyzed fetal bovine serum (RPMI+ds) (AID 1963884); note: nearly all actives have a fitted effect of over 35% in size
EXPERIMENTAL_PARAMETERS: SEM B-ALL cells, RPMI+dialyzed FBS, CellTiter-Glo viability, 48 h; series mostly up to 45.8 µM
Inconclusive results are not listed. Calls of active or inactive are those of the source. Calls follow the shape of the dose curve; as a rule, active = well fitted cell-killing curve with a large enough effect; inconclusive = small, poorly fitted or top-dose-only effect, or effect the other way; inactive = no such curve, though single readings can be large or run the other way.
Log the outcome using a class from active, inactive

CCOC(=O)C=C[C@H](C[C@@H]1CCNC1=O)NC(=O)[C@@H](CC(=O)[C@@H](NC(=O)c1cc(C)on1)C(C)C)Cc1ccc(F)cc1 :: inactive
CN(C)CCN1C(=O)c2cccc3cc(N)cc(c23)C1=O :: active

Ask: Dear all, I need the recorded test outcome for Nc1ccc(S(=O)(=O)Nc2ccnn2-c2ccccc2)cc1 , thank you.
Result: inactive

Ask: Dear all, I need the recorded test outcome for CN(C)N=Nc1nc[nH]c1C(N)=O , thank you.
Result: active

Ask: Dear all, I need the recorded test outcome for CO[C@@H]1[C@H](N(C)C(=O)c2ccccc2)C[C@H]2O[C@]1(C)n1c3ccccc3c3c4c(c5c6ccccc6n2c5c31)C(=O)NC4 , thank you.
Result: active

Ask: Dear all, I need the recorded test outcome for CCCNC(=O)[C@H]1O[C@H]1C(=O)N[C@H](C(=O)N1CCC[C@@H]1C(=O)OC)C(C)CC (stereo not given in full) , thank you.
Result: active

Ask: Dear all, I need the recorded test outcome for O=C(O)Cn1nnc(-c2cc(N3CCC(Oc4cc(F)ccc4Br)CC3)no2)n1 , thank you.
Result: inactive

Ask: Dear all, I need the recorded test outcome for COc1cc2ncnc(Nc3cccc(Cl)c3)c2cc1OC , thank you.
Result: active

Ask: Dear all, I need the recorded test outcome for CC(=O)NC[C@H]1CN(c2ccc(N3CCOCC3)c(F)c2)C(=O)O1 , thank you.
Result: inactive

Ask: Dear all, I need the recorded test outcome for COc1ccc(C2CC(c3ccccc3)=NN2c2ccc(S(N)(=O)=O)cc2)cc1 (stereo not given) , thank you.
Result: active
